# Test system: D54 ERlucT glycosylation luciferase reporter, luminescence, 24 h
# measurement protocol: N-linked glycosylation inhibitors, luciferase reporter, dose response, D54 ERlucT cells, luminescence, cherry-picks (AID 624491);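 also: signal gain reflects blocked N-linked glycosylation of a luciferase reporter; actives raise luciferase signal so AC26 marks activators of the reporter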
This listing pairs molecules with measured AC26.

Consider the worked cases shown below.
- molecule: "COc1cccc(Sc2ccccc2/C=N/NC(N)=O)c1"
  subject of test: "D54 ERlucT glycosylation luciferase reporter, luminescence, 24 h"
  parameter measured: "AC26"
  recorded value: "8340 nM"
- molecule: "COc1ccc2c(c1)CCc1c(C(=O)Nc3cc(C)n(Cc4ccc(Cl)cc4)n3)noc1-2"
  subject of test: "D54 ERlucT glycosylation luciferase reporter, luminescence, 24 h"
  parameter measured: "AC26"
  recorded value: "3370 nM"
- molecule: "C[C@H]1CN([C@@H](C)CO)C(=O)Cc2cc(NC(=O)CCC(F)(F)F)ccc2O[C@H]1CN(C)S(=O)(=O)c1ccc(F)cc1"
  subject of test: "D54 ERlucT glycosylation luciferase reporter, luminescence, 24 h"
  parameter measured: "AC26"
  recorded value: "5300 nM"
- molecule: "NC(=O)CC(NC(=O)Cc1ccc(Cl)cc1)c1ccc(NC2CCN(Cc3ccccc3)CC2)c([N+](=O)[O-])c1 (stereo not given)"
  subject of test: "D54 ERlucT glycosylation luciferase reporter, luminescence, 24 h"
  parameter measured: "AC26"
  recorded value: "480 nM"
- molecule: "C=CCn1c(SCC(=O)c2[nH]c(C)c(C(=O)OC)c2C)nc2scc(-c3ccc(OC)c(OC)c3)c2c1=O"
  subject of test: "D54 ERlucT glycosylation luciferase reporter, luminescence, 24 h"
  parameter measured: "AC26"
  recorded value: "703 nM"

Challenge: Recall and state the measured AC26 for CCOC(=O)Nc1nc2ccc(Cn3cccc3)cc2[nH]1 .
Response given: 674 nM

Challenge: Specify measured AC26 for CCOc1ccc(/C=C2\SC(N3CCCCC3)=NC2=O)cc1 .
Response given: 1100 nM

Challenge: Note AC26 for the molecule shown: Cn1c(SCC(=O)c2ccc(F)cc2)ncc(C(=O)Nc2ccccc2)c1=O
Response given: 4770 nM

Challenge: Please report AC26 for the following molecule: Cc1[nH]c2ccc(C(=O)N3CCN(c4cccc(Cl)c4)CC3)cc2c1C
Response given: 8650 nM
